Below, each entry is listed with its recorded IC50 (µg/mL), neutralization of pseudovirus.
- testedSystem: HIV-1 Env of isolate MGRM-G-013 (subtype G), on pseudovirus (HIV-1)
- assayComment: cell-based or functional assay
parameter: IC50 (µg/mL), neutralization of pseudovirus

>  <binder>
PGT-131 (antibody, V domains shown) VH: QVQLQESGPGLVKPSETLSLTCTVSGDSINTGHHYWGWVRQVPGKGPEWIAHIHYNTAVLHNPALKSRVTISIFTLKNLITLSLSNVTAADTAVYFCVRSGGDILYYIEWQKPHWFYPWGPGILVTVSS VL: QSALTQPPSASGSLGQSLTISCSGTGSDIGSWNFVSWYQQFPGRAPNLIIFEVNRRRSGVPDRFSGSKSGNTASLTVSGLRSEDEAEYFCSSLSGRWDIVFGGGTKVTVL

>  <relationSymbol>
>

>  <reportedResult>
50

$$$$
>  <binder>
PGT-123 (antibody, V domains shown) VH: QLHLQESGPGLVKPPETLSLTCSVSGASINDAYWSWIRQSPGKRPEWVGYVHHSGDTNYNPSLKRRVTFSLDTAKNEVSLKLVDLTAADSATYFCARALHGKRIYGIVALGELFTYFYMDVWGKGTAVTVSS VL: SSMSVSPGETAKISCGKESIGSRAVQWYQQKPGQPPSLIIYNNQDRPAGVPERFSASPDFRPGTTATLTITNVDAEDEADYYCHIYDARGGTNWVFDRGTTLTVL

>  <relationSymbol>
=

>  <reportedResult>
3.97

$$$$
>  <binder>
PGT-135 (antibody, V domains shown) VH: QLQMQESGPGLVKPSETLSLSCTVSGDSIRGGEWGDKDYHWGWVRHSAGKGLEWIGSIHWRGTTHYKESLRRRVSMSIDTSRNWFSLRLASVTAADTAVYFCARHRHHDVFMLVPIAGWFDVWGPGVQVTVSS VL: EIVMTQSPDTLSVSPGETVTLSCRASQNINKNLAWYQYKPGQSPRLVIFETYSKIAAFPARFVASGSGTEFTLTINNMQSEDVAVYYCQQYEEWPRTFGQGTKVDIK

>  <relationSymbol>
>

>  <reportedResult>
50

$$$$
>  <binder>
PGT-127 (antibody, V domains shown) VH: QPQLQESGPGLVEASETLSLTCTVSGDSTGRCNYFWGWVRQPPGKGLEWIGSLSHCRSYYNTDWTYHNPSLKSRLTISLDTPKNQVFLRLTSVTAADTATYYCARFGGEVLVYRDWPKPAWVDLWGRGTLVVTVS VL: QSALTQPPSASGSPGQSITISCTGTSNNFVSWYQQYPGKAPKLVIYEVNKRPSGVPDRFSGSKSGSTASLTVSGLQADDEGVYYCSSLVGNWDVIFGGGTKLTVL

>  <relationSymbol>
=

>  <reportedResult>
7.7

$$$$
>  <binder>
PGT-125 (antibody, V domains shown) VH: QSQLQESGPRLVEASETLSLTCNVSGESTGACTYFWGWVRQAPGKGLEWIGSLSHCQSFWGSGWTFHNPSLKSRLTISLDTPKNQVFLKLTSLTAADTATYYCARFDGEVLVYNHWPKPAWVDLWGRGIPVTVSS VL: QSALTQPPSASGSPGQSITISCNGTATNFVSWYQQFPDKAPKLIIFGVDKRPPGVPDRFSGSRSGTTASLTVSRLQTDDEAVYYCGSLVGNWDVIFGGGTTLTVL

>  <relationSymbol>
>

>  <reportedResult>
50

$$$$
